- Measurement Notes: qHTS of Nrf2 Activators: Hit Validation in Cytotox Assay;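 also: compound exposure lasted 24 hours before the ATP readout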
- Protocol Conditions: Cell viability counter-screen for Nrf2 activator hits; series mostly up to 46.1 µM
- Description: Many diseases have some form of oxidative stress injury and ties to inflammation, causing a host of problems for the patient. The antioxidant response element (ARE) plays an important role in alleviating the harmful effects of oxidative stress. […] Cell viability after compound treatment was measured using a luciferase-coupled ATP quantitation assay (CellTiter-Glo, Promega) in AREc32_fluc cells. […] The plates were measured on a ViewLux plate reader (PerkinElmer) with clear filter.
Hit rate of the full screen: of about 1,100 compounds, fewer than 10 were called active. About 6% were inconclusive and are not listed. Calls follow the shape of the dose curve; as a rule, active = well fitted cell-killing curve with a large enough effect; inconclusive = small, poorly fitted or top-dose-only effect; inactive = flat fitted curve, though single readings scatter. Not all results are given here.
Outcomes: active, inactive

Molecule	Label
O=C(Oc1cccc(-c2cnc3ccccc3n2)c1)c1ccco1	inactive
O=C1C(Cl)=C(Nc2ccccc2)C(=O)c2ccccc21	active
O=c1c2ccccc2oc2cc(Br)ccc12	inactive
Clc1ccccc1C=NNc1ccccn1	inactive
CCOC(=O)COn1c(=O)c(-c2ccco2)[n+]([O-])c2ccccc21	inactive
COc1ccc(O)c(-c2cc(-c3ccccc3Cl)[nH]n2)c1	inactive
O=C(NCc1ccco1)c1ccccc1-c1nc(-c2ccc(F)cc2)no1	inactive
Clc1ccc(Br)cc1-c1nc(-c2ccncc2)no1	inactive
CC(=NNc1ccc2ccccc2n1)c1ccccc1O	inactive
c1ccc(N2CC3COc4ccccc4C3=N2)cc1 (configuration not stated)	inactive
Cc1nn2c(-c3ccco3)nnc2c2ccccc12	inactive
O=c1cc(-c2ccccc2Cl)oc2c(Br)ccc(O)c12	inactive

---

- Measurement Notes: qHTS of Nrf2 Activators: Hit Validation in Cytotox Assay;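 also: compound exposure lasted 24 hours before the ATP readout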
- Protocol Conditions: Cell viability counter-screen for Nrf2 activator hits; series mostly up to 46.1 µM
Fewer than 10 of roughly 1,100 compounds were called active. Roughly 6% stayed inconclusive and do not appear here. Calls follow the shape of the dose curve; as a rule, active = well fitted cell-killing curve with a large enough effect; inconclusive = small, poorly fitted or top-dose-only effect; inactive = flat fitted curve, though single readings scatter. Not all results are given here.
Outcomes: true (active), false (inactive)

Compound	Label
CC(=O)c1cccc(NC(=O)c2cc(Cl)sc2Cl)c1	false
COC(=O)c1c(NC(=O)/C=C/C(=O)O)sc(C)c1-c1ccc(C(C)C)cc1	false
Cc1ccc(N=C2NC(=O)S/C2=C\c2ccco2)cc1	false
Cc1cc(C)c(C#N)c(SCC(=O)c2cccs2)n1	false
Cc1nn2c(-c3ccccc3)nnc2c2ccccc12	false
O=C(N=Nc1c(O)[nH]c2ccc(Br)cc12)c1ccco1	false
CC(/C=N/NC(=O)Cc1cccn1C)=C\c1ccco1	false
C=C(NC(=O)C(=C)NC(=O)c1csc(C2=NC3c4csc(n4)C4NC(=O)c5csc(n5)C(C(C)(O)C(C)O)NC(=O)C5CSC(=N5)/C(=C/C)NC(=O)C(C(C)O)NC(=O)c5csc(n5)C3(CC2)NC(=O)C(C)NC(=O)C(=C)NC(=O)C(=C)NC(=O)C(C(C)C)NC2C=Cc3c(C(C)O)cc(nc3C2O)C(=O)OC4C)n1)C(N)=O (configuration not stated)	false
CCCCn1c(O)c(N=Nc2ccccn2)c2ccccc21	false
O=c1nc2c(-c3ccccc3F)n[nH]n2c2ccccc12	false
Fc1cc(F)c2nc(Nc3nc4cc5c(cc4s3)OCO5)sc2c1	false
COc1ccc(Cl)cc1NC(=O)C1COc2ccccc2O1 (configuration not stated)	false
COc1ccc(C(C#N)=C2C=CC(=NO)C=C2)cc1	false
S=c1nc(-c2ccccc2)[nH]c2ccc(Br)cc12	false
Cc1csc(NC(=O)/C=C/c2ccco2)n1	false
Oc1ccc2ccccc2c1N=Nc1ccccn1	true
O=C(CSc1nc2c(sc3ccccc32)c(=O)n1-c1ccccc1)NCc1ccco1	false
O=C(Nc1cc(-c2nc3ncccc3o2)ccc1Cl)c1ccco1	false
Brc1cc(Br)c2nc(-c3cccs3)ccc2c1	false
CCOC(=O)N/N=C\C=C\c1ccco1	false
CC(C)CCn1c(O)c(N=Nc2ccccn2)c2ccccc21	false
COc1ccc(Cl)cc1-c1nc(-c2ccncc2)no1	false
